Below, each entry is listed alongside its reported koff.
molecular target: UniProt:Q12884; assay: hFAP Binding Assay
Sequence (Q12884 whole entry): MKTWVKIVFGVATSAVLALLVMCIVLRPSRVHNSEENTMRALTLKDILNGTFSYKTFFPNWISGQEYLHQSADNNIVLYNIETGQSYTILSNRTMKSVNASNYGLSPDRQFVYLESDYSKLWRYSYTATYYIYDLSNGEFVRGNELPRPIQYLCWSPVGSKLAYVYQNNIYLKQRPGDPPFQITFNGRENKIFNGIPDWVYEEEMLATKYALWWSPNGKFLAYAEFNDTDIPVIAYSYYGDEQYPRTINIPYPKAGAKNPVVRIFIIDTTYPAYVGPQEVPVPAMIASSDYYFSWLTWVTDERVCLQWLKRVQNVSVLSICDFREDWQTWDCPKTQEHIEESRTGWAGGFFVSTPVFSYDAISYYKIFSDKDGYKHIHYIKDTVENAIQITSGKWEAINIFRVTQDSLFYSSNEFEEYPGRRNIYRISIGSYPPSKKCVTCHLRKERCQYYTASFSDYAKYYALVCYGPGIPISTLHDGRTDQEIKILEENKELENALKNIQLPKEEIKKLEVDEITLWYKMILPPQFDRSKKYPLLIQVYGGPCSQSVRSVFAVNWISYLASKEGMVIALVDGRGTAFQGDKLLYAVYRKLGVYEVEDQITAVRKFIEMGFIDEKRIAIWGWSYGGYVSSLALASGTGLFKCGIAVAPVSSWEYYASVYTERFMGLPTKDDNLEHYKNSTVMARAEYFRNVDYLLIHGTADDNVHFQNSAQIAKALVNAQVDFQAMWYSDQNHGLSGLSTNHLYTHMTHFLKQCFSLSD
Write the value in s⁻¹ as a bare number.

Record excerpt, results attached:
smiles repr | metric | unit descriptor | measured value
N#C[C@@H]1CSCN1C(=O)CNC(=O)c1ccnc2ccc(N3CCC(F)(c4ccccc4)CC3)cc12 | koff | s⁻¹ | 2.6e-05
N#C[C@@H]1CSCN1C(=O)CNC(=O)c1ccnc2ccc(N3CC(CF)C3)cc12 | koff | s⁻¹ | 4.5e-05

Qu. Consider the molecule CC(C)OC1CCN(c2ccc3nccc(C(=O)NCC(=O)N4CSC[C@H]4C#N)c3c2)CC1 and give its measured koff.
Ans. 1.9e-05

Qu. Using the record for COC[C@@H]1CN(c2ccc3nccc(C(=O)NCC(=O)N4CSC[C@H]4C#N)c3c2)CCO1 , report its koff.
Ans. 8e-05

Qu. I have this molecule here, Cc1noc(C)c1-c1ccc2nccc(C(=O)NCC(=O)N3CSC[C@H]3C#N)c2c1 , and I need its recorded koff.
Ans. 0.0009

Qu. Query (molecule): N#C[C@@H]1CSCN1C(=O)CNC(=O)c1ccnc2ccc(-c3ccnn3[C@H]3CCCCO3)cc12 ; field requested: koff
Ans. 0.00022

Qu. Return reported koff; argument: C[C@H]1CC(F)(F)CCN1c1ccc2nccc(C(=O)NCC(=O)N3CSC[C@H]3C#N)c2c1
Ans. 7.2e-05

// data source = BindingDB's records for patent US20230312550
